Assay Target: Ribosomal protein S6 kinase alpha-2 (Homo sapiens) (UniProt Q15349);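 further: reported value is the mean percent inhibition of RSK3, from the GSK PKIS screening panel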
Sequence (Q15349 whole entry): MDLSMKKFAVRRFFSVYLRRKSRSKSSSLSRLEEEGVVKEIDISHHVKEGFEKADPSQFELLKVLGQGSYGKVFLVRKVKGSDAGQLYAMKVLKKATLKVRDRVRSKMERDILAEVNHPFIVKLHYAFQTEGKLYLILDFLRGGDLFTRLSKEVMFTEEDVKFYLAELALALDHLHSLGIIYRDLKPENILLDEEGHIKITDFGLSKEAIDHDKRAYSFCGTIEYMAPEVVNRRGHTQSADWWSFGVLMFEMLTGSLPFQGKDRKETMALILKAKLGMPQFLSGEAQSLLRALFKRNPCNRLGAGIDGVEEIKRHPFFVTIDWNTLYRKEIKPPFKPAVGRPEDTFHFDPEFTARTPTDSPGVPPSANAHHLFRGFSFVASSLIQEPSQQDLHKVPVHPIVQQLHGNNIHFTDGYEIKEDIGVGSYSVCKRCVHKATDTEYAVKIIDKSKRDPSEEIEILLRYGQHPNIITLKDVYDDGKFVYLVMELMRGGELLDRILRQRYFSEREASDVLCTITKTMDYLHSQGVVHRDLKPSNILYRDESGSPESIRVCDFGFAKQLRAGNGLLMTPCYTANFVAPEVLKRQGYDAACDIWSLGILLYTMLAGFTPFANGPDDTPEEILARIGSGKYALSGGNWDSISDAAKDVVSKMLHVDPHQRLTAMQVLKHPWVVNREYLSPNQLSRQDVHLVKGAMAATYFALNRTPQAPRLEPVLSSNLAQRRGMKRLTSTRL
Condition Details: at 0.1 µM
Readout Label: inhibition (%)
Give the value, in units of %, as a plain number.

Examples with answers:
| Molecule | inhibition / % |
| --- | --- |
| c1cnn2ncc(-c3ccnc(Nc4ccc5c(c4)OCCO5)n3)c2c1 | 2.89 |
| COc1ccc2cc(-c3c(-c4ccncc4)nc(-c4ccc([S+](C)[O-])cc4)n3C)ccc2c1 (stereo not given) | 2.14 |
| NCc1ccc(-c2nc(-c3ccc(Cl)c(O)c3)c(-c3ccncc3)[nH]2)cc1 | 0.29 |

Request: Form field: reported inhibition of N#Cc1c(NC(=O)c2cccc3ccccc23)sc2c1CCCC2
Response: 2.55

Request: Form field: reported inhibition of Cc1nnc(-c2ccc(C)c(-c3ccc(C(=O)Nc4cccc(C#N)c4)cc3)c2)o1
Response: 0.46

Request: Form field: reported inhibition of Cc1ccc(C(=O)NC2CCCCC2)cc1-c1ccc(C(=O)NCC2CC2)cc1
Response: -1.41

Request: Form field: reported inhibition of COc1ccc(COc2ccc(Cc3cnc(N)nc3N)cc2OC)cc1
Response: 0.01

Request: Form field: reported inhibition of COc1ccccc1Nc1ncc(-c2ccccc2)o1
Response: 3.05

Request: Form field: reported inhibition of COc1cc(C)c(NC(=O)CN(C)C)cc1Nc1nc(Nc2cccc(F)c2C(N)=O)c2cc[nH]c2n1
Response: 1.22

Request: Form field: reported inhibition of COc1cc2ncn(-c3cc(OCc4ccccc4Cl)c(C(N)=O)s3)c2cc1OC
Response: 1.46

Request: Form field: reported inhibition of CNC(=O)c1cncc(/C=C/c2c(Cl)cccc2Cl)c1
Response: 1.97

Request: Form field: reported inhibition of Nc1nc(-c2ccccn2)c(-c2ccc3ncccc3n2)s1
Response: 1.71

Request: Form field: reported inhibition of Cc1nn(C)c2cc(N(C)c3ccnc(Nc4cccc(S(N)(=O)=O)c4)n3)ccc12
Response: 2.93

Request: Form field: reported inhibition of NS(=O)(=O)c1cccc(-c2ccc3c(NC(=O)C4CC4)n[nH]c3c2)c1
Response: -0.89
